# Tested Target: mTOR (Homo sapiens, UniProt P42345)
# Experiment: Inhibition of mTOR
# Format: biochemical
# Condition Info: read-out: mTOR (Inhibition % at 50 μM, or IC50); inhibition at 50 μM
Assay Metric: inhibition at 50 µM (%)

Use the examples below as a reference point.
{"columns": ["Smiles Entry", "Tested Target", "Unit Abbreviation", "inhibition at 50 µM"],
 "data": [
  ["FC(F)(F)c1cc(C#Cc2n[nH]c3ccccc23)cc(C(F)(F)F)c1", "mTOR (Homo sapiens, UniProt P42345)", "%", -3],
  ["Cn1cncc1C#Cc1n[nH]c2cc(C(=O)O)ccc12", "mTOR (Homo sapiens, UniProt P42345)", "%", 24],
  ["C(#Cc1n[nH]c2ccccc12)c1ccncc1", "mTOR (Homo sapiens, UniProt P42345)", "%", 30],
  ["C(#Cc1n[nH]c2ccccc12)c1ccccc1", "mTOR (Homo sapiens, UniProt P42345)", "%", 6],
  ["Nc1ccc(C#Cc2n[nH]c3ccccc23)cc1", "mTOR (Homo sapiens, UniProt P42345)", "%", 9],
  ["C(#Cc1n[nH]c2ccccc12)c1ccccn1", "mTOR (Homo sapiens, UniProt P42345)", "%", 13]
]}

I: N#Cc1ccc(C#Cc2n[nH]c3ccccc23)cc1
II: C(#Cc1n[nH]c2ccccc12)c1ccsc1
Returns: the label, I or II , whose recorded inhibition at 50 µM is the lower number. Could you answer with the label of the item you picked?
I

1: C(#Cc1n[nH]c2ccccc12)c1cccnc1
2: Cn1cncc1C#Cc1n[nH]c2cc(C(=O)NCc3cc4ccccc4[nH]3)ccc12
Returns: the label, 1 or 2 , whose recorded inhibition at 50 µM is the lower number. Could you answer with the label of the item you picked?
2
(2: 3%, 1: 34%)

P: COc1ccc2cc(C#Cc3n[nH]c4ccccc34)ccc2c1
Q: Cn1cncc1C#Cc1n[nH]c2ccccc12
Returns: the label, P or Q , whose recorded inhibition at 50 µM is the lower number. Could you answer with the label of the item you picked?
P
(P: 5%, Q: 46%)

P: Fc1cc(F)cc(C#Cc2n[nH]c3ccccc23)c1
Q: Cn1cncc1C#Cc1n[nH]c2cc(C(=O)NC34CC5CC(CC(C5)C3)C4)ccc12
Of the two listed items, which has the higher inhibition at 50 µM? First: P Second: Q Could you answer with the label of the item you picked?
P
(P: 6%, Q: -11%)

A: COC(=O)c1ccc2c(C#Cc3cncn3C)n[nH]c2c1
B: Cn1cncc1C#Cc1n[nH]c2cc(C(=O)NCc3ccco3)ccc12
Returns: the label, A or B , whose recorded inhibition at 50 µM is the lower number. Could you answer with the label of the item you picked?
B
(B: -5%, A: 4%)

I: C(#Cc1n[nH]c2ncccc12)c1ccccn1
II: Cn1cncc1C#Cc1n[nH]c2cc(C(=O)NCc3cccs3)ccc12
Of the two listed items, which has the higher inhibition at 50 µM? First: I Second: II Could you answer with the label of the item you picked?
I
(I: 7%, II: -14%)

---

# Tested Target: mTOR (Homo sapiens)
Assay Metric: IC50

Could you tell me which IC50 is on file for Cn1cncc1C#Cc1n[nH]c2ccccc12 ?
> 100 µM
